The values you see were collected from patent US20250313533A1.

Quick list: inhibition at 1 ppm per entry.
System: pathogenic bacteria causing bacterial angular leaf spot in cucumbers
TEST PROTOCOL: In vitro bactericidal activity, bacterial angular leaf spot in cucumbers
Format: cell-based, pseudomonas
CONDITION DESCRIPTION: dosage 1 ppm, read-out: inhibitory rate

In the examples that follow, each entry is paired with its recorded inhibition at 1 ppm.
{"columns": ["COMPOUND", "inhibition at 1 ppm"],
 "data": [
  ["COCCOC(=O)c1cn(C2CC2)c2cc(OC(C)(C)C)c(F)cc2c1=O [Compound 287]", "≥ 90%"],
  ["O=C(OCCCO)c1cn(C2CC2)c2cc(Cl)c(F)cc2c1=O [Compound 164]", "≥ 90%"]
]}

Tell me its inhibition at 1 ppm given COCOC(=O)c1cn(C2CC2)c2cc(Cl)c(F)cc2c1=O [Compound 143] as the entry.
≥ 80%

Tell me its inhibition at 1 ppm given CCN(CC)c1cc2c(cc1F)c(=O)c(C(=O)OCCO)cn2C1CC1 [Compound 419] as the entry.
≥ 90%

Tell me its inhibition at 1 ppm given CCOc1cc2c(cc1F)c(=O)c(C(=O)OCCCO)cn2C1CC1 [Compound 309] as the entry.
≥ 90%
